Test system: T1, mouse EGFL7 (mEGFL7-CB-His) (mouse, UniProt Q9QXT5 22-275)
T1 sequence: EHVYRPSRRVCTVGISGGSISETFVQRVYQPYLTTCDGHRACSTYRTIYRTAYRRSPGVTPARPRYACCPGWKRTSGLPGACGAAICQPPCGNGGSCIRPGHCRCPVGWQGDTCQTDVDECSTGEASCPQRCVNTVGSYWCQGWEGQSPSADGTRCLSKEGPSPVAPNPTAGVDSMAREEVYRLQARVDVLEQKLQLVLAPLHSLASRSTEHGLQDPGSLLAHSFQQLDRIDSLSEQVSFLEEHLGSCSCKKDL
Experiment description: SPR (Biacore), IgG over immobilized mEGFL7-CB at 37 C;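 further: IgG injected as twofold series from 0.5 to 1000 nM, 3 min association and 3.5 min dissociation, reference flow cell subtracted, kinetics fitted to 1:1 Langmuir model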
Rule: measured kon below 70000 M⁻¹ s⁻¹ gets true (1); anything equal to or greater than 70000 M⁻¹ s⁻¹ gets false (0).

1. 18F7.v6E IgG (antibody, V domains shown, IgG; Variant of 18F7.v6) VH: EVQLVESGGGLVQPGGSLRLSCAASGYTFIDYYMNWVRQAPGKGLEWVGDINLDNSGTHYNQKFKGRFTISRDKSKNTAYLQMNSLRAEDTAVYYCAREGVYHDYDDYAMDYWGQGTLVTVSS VL: DIQMTQSPSSLSASVGDRVTITCRTSQSLVHISGITYLHWYQQKPGKAPKLLIYRVSNRFSGVPSRFSGSGSGTDFTLTISSLQPEDFATYYCGQSTHVPLTFGQGTKVEIK : true (1)
2. 18F7.v6J IgG (antibody, V domains shown, IgG; Variant of 18F7.v6) VH: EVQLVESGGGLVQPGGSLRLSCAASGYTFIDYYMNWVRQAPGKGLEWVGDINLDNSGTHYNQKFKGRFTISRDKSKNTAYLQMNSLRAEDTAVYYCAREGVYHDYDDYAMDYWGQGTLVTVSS VL: DIQMTQSPSSLSASVGDRVTITCRTSQSLVHINSITYLHWYQQKPGKAPKLLIYRVSNRFSGVPSRFSGSGSGTDFTLTISSLQPEDFATYYCGQSTHVPLTFGQGTKVEIK : true (1)
3. 18F7.v4 IgG (antibody, name in Kabat numbering, V domains shown, IgG; Kabat numbering; also called 18F7-KV) VH: EVQLVESGGGLVQPGGSLRLSCAASGYTFIDYYMNWVRQAPGKGLEWVGDINLDNGGTHYNQKFKGRFTISRDKSKNTVYLQMNSLRAEDTAVYYCAREGVYHDYDDYAMDYWGQGTLVTVSS VL: DIQMTQSPSSLSASVGDRVTITCRTSQSLVHINGITYLHWYQQKPGKAPKLLIYRVSNRFSGVPSRFSGSGSGTDFTLTISSLQPEDFATYYCSQSTHVPLTFGQGTKVEIKR : true (1)
4. 18F7.v1 IgG (18F7-graft) (antibody, V domains shown, Expressed as IgG) VH: EVQLVESGGGLVQPGGSLRLSCAASGYTFIDYYMNWVRQAPGKGLEWVGDINLDNGGTHYNQKFKGRFTISRDNSKNTLYLQMNSLRAEDTAVYYCAREGVYHDYDDYAMDYWGQGTLVTVSS VL: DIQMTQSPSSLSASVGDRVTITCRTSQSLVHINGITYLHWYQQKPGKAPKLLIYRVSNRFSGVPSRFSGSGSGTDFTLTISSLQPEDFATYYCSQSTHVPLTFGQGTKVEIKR : false (0)
